Test target: Aβ42 (Homo sapiens, UniProt P05067)
Sequence (P05067 672-713): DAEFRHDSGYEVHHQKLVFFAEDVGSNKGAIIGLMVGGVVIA
Procedure details: Th-T (thioflavin-T) assay of Aβ42 aggregation
Type: biochemical
Assay conditions: time course, reading M57
Property name: Th-T fluorescence, mean of three wells
No unit in the answer, please; the number alone is enough.

Which Th-T fluorescence, mean of three wells reading was recorded for the compound C=C1CCC2C(C)(CC(=O)C=C(C)C)C(O)CCC2(C)C1Cc1c(OC)oc(C)c(C)c1=O (centres unmarked) ?
3.709

Which Th-T fluorescence, mean of three wells reading was recorded for the compound `C=C1CC[C@H]2[C@]3(C)C[C@@H](C=C(C)C)O[C@H]3CC[C@]2(C)[C@@H]1Cc1c(O)c(C)c(C)oc1=O` ?
2.692

Which Th-T fluorescence, mean of three wells reading was recorded for the compound `C=C1CC[C@H]2[C@]3(C)C[C@@H](C=C(C)C)O[C@H]3CC[C@]2(C)[C@@H]1Cc1c(OC)oc(CO)c(C)c1=O` ?
3.617

Which Th-T fluorescence, mean of three wells reading was recorded for the compound `C=C1CC[C@@H]2[C@](C)(CC[C@H]3O[C@H](C=C(C)C)C[C@@]23C)[C@@H]1Cc1c(O)c(C)c(C)oc1=O` ?
3.145

Which Th-T fluorescence, mean of three wells reading was recorded for the compound C=C1CCC2C(C)(CC(=O)C=C(C)C)C(O)CCC2(C)C1Cc1c(O)c(C)c(C)oc1=O (centres unmarked) ?
3.603

Which Th-T fluorescence, mean of three wells reading was recorded for the compound C=C1CCC2C3(C)CC(C=C(C)C)OC3CCC2(C)C1Cc1c(OC)oc(C)c(C)c1=O (centres unmarked) ?
4.004

Which Th-T fluorescence, mean of three wells reading was recorded for the compound `CC(C)=CCC/C(C)=C/CC/C(C)=C/CC/C(C)=C/Cc1c(O)c(C)c(C)oc1=O` ?
2.932

Which Th-T fluorescence, mean of three wells reading was recorded for the compound C=C1CCC2C(C)(CC(=O)C=C(C)C)C(O)CCC2(C)C1Cc1c(OC)oc(CO)c(C)c1=O (centres unmarked) ?
3.606

Which Th-T fluorescence, mean of three wells reading was recorded for the compound `C=C1CC[C@H]2[C@]3(C)C[C@H](C=C(C)C)O[C@H]3CC[C@]2(C)[C@@H]1Cc1c(OC)oc(C)c(C)c1=O` ?
4.13

Which Th-T fluorescence, mean of three wells reading was recorded for the compound `C=C1CC[C@H]2[C@]3(C)C[C@H](C=C(C)C)O[C@H]3CC[C@]2(C)[C@@H]1Cc1c(O)c(C)c(C)oc1=O` ?
3.126

Which Th-T fluorescence, mean of three wells reading was recorded for the compound `C=C1CC[C@H]2[C@]3(C)C[C@H](C=C(C)C)O[C@H]3CC[C@]2(C)[C@@H]1Cc1c(OC)oc(CO)c(C)c1=O` ?
3.991

###

Test target: Aβ42 (Homo sapiens, UniProt P05067)
Procedure details: Th-T (thioflavin-T) assay of Aβ42 aggregation
Type: biochemical
Assay conditions: time-course reading M101; Supplementary Fig. 47 source data
Could you please report measured Th-T fluorescence, mean of three wells for the items listed next?

Which Th-T fluorescence, mean of three wells reading was recorded for the molecule C=C1CC[C@@H]2[C@](C)(CC[C@H]3O[C@H](C=C(C)C)C[C@@]23C)[C@@H]1Cc1c(OC)oc(CO)c(C)c1=O [Compound 20] ?
4.225

Which Th-T fluorescence, mean of three wells reading was recorded for the molecule C=C1CCC2C(C)(CCC=C(C)C)C(O)CCC2(C)C1Cc1c(O)c(C)c(C)oc1=O (centres unmarked) [Compound 9, higginsianin B] ?
2.818

Which Th-T fluorescence, mean of three wells reading was recorded for the molecule C=C1CCC2C(C)(CCC=C(C)C)C(O)CCC2(C)C1Cc1c(OC)oc(CO)c(C)c1=O (centres unmarked) [Compound 12] ?
2.074

Which Th-T fluorescence, mean of three wells reading was recorded for the molecule C=C1CCC2C(C)(CCC=C(C)C)C(O)CCC2(C)C1Cc1c(O)c(C)c(C)oc1=O (centres unmarked) [Compound 4] ?
2.764

Which Th-T fluorescence, mean of three wells reading was recorded for the molecule C=C1CCC2C(C)(CCC=C(C)C)C(O)CCC2(C)C1Cc1c(OC)oc(C)c(C)c1=O (centres unmarked) [Compound 15, viridoxin A hydrolysate] ?
3.295

Which Th-T fluorescence, mean of three wells reading was recorded for the molecule C=C1CCC2C(C)(CCC=C(C)C)C(O)CCC2(C)C1Cc1c(OC)oc(CO)c(C(=O)OC)c1=O (centres unmarked) [Compound 13] ?
1.043

Which Th-T fluorescence, mean of three wells reading was recorded for the molecule CC(C)=CCC/C(C)=C/CC/C(C)=C/CC/C(C)=C/Cc1c(O)c(C)c(C)oc1=O [Compound 2] ?
2.966

Which Th-T fluorescence, mean of three wells reading was recorded for the molecule C=C1CC[C@H]2[C@]3(C)C[C@@H](C=C(C)C)O[C@H]3CC[C@]2(C)[C@@H]1Cc1c(O)c(C)c(C)oc1=O [Compound 5, subglutinol A] ?
2.67

Which Th-T fluorescence, mean of three wells reading was recorded for the molecule C=C1CCC2C(C)(CCC=C(C)C)C(O)CCC2(C)C1Cc1c(OC)oc(C)c(C(=O)OC)c1=O (centres unmarked) [Compound 14] ?
1.605

Which Th-T fluorescence, mean of three wells reading was recorded for the molecule C=C1CCC2C3(C)CC(C=C(C)C)OC3CCC2(C)C1Cc1c(OC)oc(C)c(C)c1=O (centres unmarked) [Compound 23] ?
3.9074

Which Th-T fluorescence, mean of three wells reading was recorded for the molecule C=C1CC[C@H]2[C@]3(C)C[C@@H](C=C(C)C)O[C@H]3CC[C@]2(C)[C@@H]1Cc1c(OC)oc(CO)c(C)c1=O [Compound 17] ?
3.715

Which Th-T fluorescence, mean of three wells reading was recorded for the molecule C=C1CC[C@H]2[C@]3(C)C[C@H](C=C(C)C)O[C@H]3CC[C@]2(C)[C@@H]1Cc1c(OC)oc(C)c(C)c1=O [Compound 24] ?
3.9991

Which Th-T fluorescence, mean of three wells reading was recorded for the molecule C=C1CCC2C(C)(CC(=O)C=C(C)C)C(O)CCC2(C)C1Cc1c(O)c(C)c(C)oc1=O (centres unmarked) [Compound 7] ?
3.502

Which Th-T fluorescence, mean of three wells reading was recorded for the molecule C=C1CC[C@H]2[C@]3(C)C[C@H](C=C(C)C)O[C@H]3CC[C@]2(C)[C@@H]1Cc1c(OC)oc(CO)c(C)c1=O [Compound 18] ?
3.863

###

Test target: Aβ42 (Homo sapiens, UniProt P05067)
Procedure details: Th-T (thioflavin-T) assay of Aβ42 aggregation
Type: biochemical
Assay conditions: compound at 10; reading M45 of time course
Property name: Th-T fluorescence, mean of three wells
No unit in the answer, please; the number alone is enough.

Which Th-T fluorescence, mean of three wells reading was recorded for the compound C=C1CCC2C(C)(CCC=C(C)C)C(O)CCC2(C)C1Cc1c(OC)oc(CO)c(C(=O)OC)c1=O (centres unmarked) ?
1.405

Which Th-T fluorescence, mean of three wells reading was recorded for the compound `C=C1CC[C@@H]2[C@](C)(CC[C@H]3O[C@H](C=C(C)C)C[C@@]23C)[C@@H]1Cc1c(OC)oc(CO)c(C)c1=O` ?
3.48

Which Th-T fluorescence, mean of three wells reading was recorded for the compound C=C1CCC2C(C)(CCC=C(C)C)C(O)CCC2(C)C1Cc1c(OC)oc(CO)c(C)c1=O (centres unmarked) ?
3.373

Which Th-T fluorescence, mean of three wells reading was recorded for the compound `C=C1CC[C@@H]2[C@](C)(CC[C@H]3O[C@H](C=C(C)C)C[C@@]23C)[C@@H]1Cc1c(OC)oc(CO)c(C(=O)OC)c1=O` ?
0.2609

Which Th-T fluorescence, mean of three wells reading was recorded for the compound C=C1CCC2C(C)(CCC=C(C)C)C(O)CCC2(C)C1Cc1c(OC)oc(C)c(C(=O)OC)c1=O (centres unmarked) ?
2.494

###

Test target: UniProtKB P05067
Procedure details: Th-T (thioflavin-T) assay of Aβ42 aggregation
Format: biochemical
Assay conditions: column suffix _20; reading M7
Property name: Th-T assay signal, mean of three wells (Fig. 7a)
No unit in the answer, please; the number alone is enough.

Enter reported Th-T assay signal, mean of three wells (Fig. 7a) observed with UniProtKB P05067 for C=C1CCC2C(C)(CCC=C(C)C)C(O)CCC2(C)C1Cc1c(OC)oc(CO)c(C(=O)OC)c1=O (centres unmarked)
0.2009

Enter reported Th-T assay signal, mean of three wells (Fig. 7a) observed with UniProtKB P05067 for C=C1CCC2C(C)(CCC=C(C)C)C(O)CCC2(C)C1Cc1c(OC)oc(C)c(C(=O)OC)c1=O (centres unmarked)
0.3085

Enter reported Th-T assay signal, mean of three wells (Fig. 7a) observed with UniProtKB P05067 for `C=C1CC[C@@H]2[C@](C)(CC[C@H]3O[C@H](C=C(C)C)C[C@@]23C)[C@@H]1Cc1c(OC)oc(CO)c(C(=O)OC)c1=O`
0.1945

Enter reported Th-T assay signal, mean of three wells (Fig. 7a) observed with UniProtKB P05067 for `C=C1CC[C@@H]2[C@](C)(CC[C@H]3O[C@H](C=C(C)C)C[C@@]23C)[C@@H]1Cc1c(OC)oc(CO)c(C)c1=O`
0.4716

Enter reported Th-T assay signal, mean of three wells (Fig. 7a) observed with UniProtKB P05067 for C=C1CCC2C(C)(CCC=C(C)C)C(O)CCC2(C)C1Cc1c(OC)oc(CO)c(C)c1=O (centres unmarked)
2.22

Source of measurements: paper PMC7156458
